Read-out: Collagen I, COL1A1 (gene 1277)
Procedure Details: BSK_MyoF_CollagenI: BioMAP Diversity Plus: MyoF Assay for Collagen I Biomarker Activity (AID 2284238)
Experimental Context: primary human lung fibroblasts
Active and inactive are the calls of the source. Rule for the calls: active = hit-call score of the fitted dose curve at least 0.9, where 1 is the maximum; inactive = score below 0.9.
Form entry, call: pick from 1 (active), 0 (inactive)

NS(=O)(=O)C(F)(F)C(F)(F)C(F)(F)C(F)(F)C(F)(F)C(F)(F)C(F)(F)C(F)(F)F | 1
O=S(=O)(O)C(F)(F)C(F)(F)C(F)(F)C(F)(F)C(F)(F)C(F)(F)F | 0
Oc1c(Cl)c(Cl)c(Cl)c(Cl)c1Cl | 1
O=S(=O)(O)C(F)(F)C(F)(F)C(F)(F)C(F)(F)F | 0

Note: attention shifts to another entry.
Task item: Name the outcome recorded for `O=C(O)C(F)(F)C(F)(F)C(F)(F)C(F)(F)C(F)(F)F` in the assay.
Reply: 0

###

Procedure Details: STM_H9_CystineISnorm_perc: Stemina devTOX quickPredict H9 human embryonic stem cell (hESC)-based Assay for Cystine (CYSS) Metabolite Biomarker, Normalized (AID 2283713)
Activity calls are given as the source filed them. The calls were made as follows: active = hit-call score of the fitted dose curve at least 0.9, where 1 is the maximum; inactive = score below 0.9.
Parameter: AC50

CCSC(=O)N(CC)C1CCCCC1 | 32.1 µM (active)

Task item: May I ask what AC50 has been recorded for `C=CC(=O)NCNC(=O)C=C` ?
Reply: 81.3 µM (active)

###

Read-out: Cytochrome P450 (CYP1A2), CYP1A2 (gene 1544)
Procedure Details: LTEA_HepaRG_CYP1A2: Life Technologies and Expression Analysis (LTEA) Assay for Cytochrome P450 (CYP1A2) using HepaRG (AID 2283479)
Experimental Context: mRNA level, 48 h; actives raise or lower the signal
The source made the active and inactive calls. How the source made its calls: active means hit-call score of the fitted dose curve at least 0.9, where 1 is the maximum; inactive means score below 0.9.
Form entry, call: pick from class 1 = active, class 0 = inactive

Here are 5 compounds together with their reported answers.
C1CC2OC2CC1C1CO1 (stereo not given) | class 0
Clc1ccc(C(Cl)(Cl)Cl)cc1 | class 0
CC(c1ccc(O)cc1)(c1ccc(O)cc1)c1ccc(O)cc1 | class 1
O=C(NC(=O)c1cc(F)c(F)cc1Cl)Nc1cc(F)ccc1N1CCC(C(=O)O)CC1 | class 0
Oc1c(Cl)c(Cl)c(Cl)c(Cl)c1Cl | class 1

Task item: Name the outcome recorded for `ClC1=C(Cl)[C@]2(Cl)[C@@H]3[C@H]4C[C@H]([C@@H]5O[C@H]45)[C@@H]3[C@@]1(Cl)C2(Cl)Cl` in the assay.
Reply: class 0

###

Read-out: ABC Transporter (ABCC2), ABCC2 (gene 1244)
Procedure Details: LTEA_HepaRG_ABCC2: Life Technologies and Expression Analysis (LTEA) Assay for ABC Transporter (ABCC2) using HepaRG (AID 2283464)
Experimental Context: mRNA level, 48 h; actives raise or lower the signal
Activity calls are given as the source filed them. How the source made its calls: active means hit-call score of the fitted dose curve at least 0.9, where 1 is the maximum; inactive means score below 0.9.
Form entry, call: pick from T = active, F = inactive

Oc1ccc(C(c2ccc(O)cc2)(C(F)(F)F)C(F)(F)F)cc1 | F

Task item: Name the outcome recorded for `C=CC(N)=O` in the assay.
Reply: F

Task item: Name the outcome recorded for `ClC1=C(Cl)[C@]2(Cl)[C@@H]3[C@H]4C[C@H]([C@@H]5O[C@H]45)[C@@H]3[C@@]1(Cl)C2(Cl)Cl` in the assay.
Reply: T

Task item: Name the outcome recorded for `ClC1=C(Cl)[C@]2(Cl)[C@@H]3[C@@H](Cl)[C@H]4O[C@H]4[C@@H]3C1(Cl)C2(Cl)Cl` in the assay.
Reply: F

Task item: Name the outcome recorded for `Cc1ccccc1[N+](=O)[O-]` in the assay.
Reply: F

###

Assayed Target: Peroxisome proliferator-activated receptor gamma (Homo sapiens) (UniProt P37231)
Sequence (P37231 whole entry, looked up): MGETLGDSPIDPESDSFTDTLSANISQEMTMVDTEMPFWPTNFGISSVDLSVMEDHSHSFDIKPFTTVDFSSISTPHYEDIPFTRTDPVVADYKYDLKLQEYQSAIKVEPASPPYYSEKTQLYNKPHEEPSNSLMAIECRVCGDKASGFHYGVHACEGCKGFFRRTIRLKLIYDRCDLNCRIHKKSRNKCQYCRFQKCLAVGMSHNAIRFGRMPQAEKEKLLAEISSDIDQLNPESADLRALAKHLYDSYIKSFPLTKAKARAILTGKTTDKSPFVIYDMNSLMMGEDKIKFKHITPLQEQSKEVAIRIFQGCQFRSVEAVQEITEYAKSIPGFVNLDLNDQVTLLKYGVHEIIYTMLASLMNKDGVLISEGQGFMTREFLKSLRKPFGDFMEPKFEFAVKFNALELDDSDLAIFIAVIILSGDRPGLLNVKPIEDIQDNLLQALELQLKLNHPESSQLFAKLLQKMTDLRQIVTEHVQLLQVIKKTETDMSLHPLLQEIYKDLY
Procedure Details: NVS_NR_hPPARg: NovaScreen (NVS) Nuclear Receptor Binding Assay for human Peroxisome Proliferator-activated Receptor gamma (PPARg) (AID 2283370)
Inconclusive results are not listed. Calls of active or inactive are those of the source. Rule for the calls: active = hit-call score of the fitted dose curve at least 0.9, where 1 is the maximum; inconclusive = response in the unintended direction; inactive = score below 0.9.
Form entry, call: pick from active, inactive

Here are 3 molecules together with their reported answers.
Cc1cccc(C)c1N | active
Nn1cnnc1 | inactive
ClC1=C(Cl)[C@]2(Cl)[C@@H]3[C@@H]4C[C@@H]([C@H]5O[C@@H]45)[C@@H]3[C@@]1(Cl)C2(Cl)Cl | inactive

Note: attention shifts to another entry.
Task item: Name the outcome recorded for `CCCCCCCCCC[N+](C)(C)CCCCCCCCCC` in the assay.
Reply: inactive

###

Procedure Details: ATG_GATA_CIS: Attagene CIS-FACTORIAL HepG2 Assay for human GATA Binding Protein (AID 2282944)
Experimental Context: HepG2 GATA cis-element reporter, Attagene multiplex mRNA; actives raise or lower the signal
Calls of active or inactive are those of the source. How the source made its calls: active means hit-call score of the fitted dose curve at least 0.9, where 1 is the maximum; inactive means score below 0.9.
Form entry, call: pick from active, inactive

Cc1cccc([N+](=O)[O-])c1 | inactive

Task item: Name the outcome recorded for `Cc1ccccc1CO[C@@H]1C[C@@]2(C(C)C)CC[C@]1(C)O2` in the assay.
Reply: inactive

Task item: Name the outcome recorded for `CC1=C2C[C@H]3[C@@H](CC=C4C[C@@H](O)CC[C@@]43C)[C@@H]2CC[C@]12O[C@@H]1C[C@H](C)CN[C@H]1[C@H]2C` in the assay.
Reply: inactive

Task item: Name the outcome recorded for `CC(c1ccc(O)cc1)(c1ccc(O)cc1)c1ccc(O)cc1` in the assay.
Reply: inactive

Task item: Name the outcome recorded for `Oc1ccc(C(c2ccc(O)cc2)(C(F)(F)F)C(F)(F)F)cc1` in the assay.
Reply: inactive

Task item: Name the outcome recorded for `N#Cc1ccc(N(CC(N)=O)CC(F)(F)F)cc1C(F)(F)F` in the assay.
Reply: inactive

Task item: Name the outcome recorded for `O=C(N[C@H]1CN2CCC1CC2)c1cc2ccoc2cn1` in the assay.
Reply: inactive

Task item: Name the outcome recorded for `C=CC(=O)NCNC(=O)C=C` in the assay.
Reply: inactive

###

Read-out: TIMP metallopeptidase inhibitor 1 (TIMP1), TIMP1 (gene 7076)
Procedure Details: BSK_MyoF_TIMP1: BioMAP Diversity Plus: MyoF Assay for TIMP metallopeptidase inhibitor 1 (TIMP1) Biomarker Activity (AID 2284269)
Experimental Context: primary human lung fibroblasts
Calls of active or inactive are those of the source. Rule for the calls: active = hit-call score of the fitted dose curve at least 0.9, where 1 is the maximum; inactive = score below 0.9.
Form entry, call: pick from y (active), n (inactive)

Here are 4 molecules together with their reported answers.
O=S(=O)(O)C(F)(F)C(F)(F)C(F)(F)C(F)(F)F | n
O=S(=O)(O)C(F)(F)C(F)(F)C(F)(F)C(F)(F)C(F)(F)C(F)(F)F | n
O=C(O)C(F)(F)C(F)(F)C(F)(F)C(F)(F)C(F)(F)C(F)(F)C(F)(F)C(F)(F)F | n
Oc1c(Cl)c(Cl)c(Cl)c(Cl)c1Cl | y

Task item: Name the outcome recorded for `O=C(O)C(F)(F)C(F)(F)C(F)(F)C(F)(F)C(F)(F)F` in the assay.
Reply: n

###

Read-out: Keratin 19 (KRT19), KRT19 (gene 3880)
Procedure Details: LTEA_HepaRG_KRT19: Life Technologies and Expression Analysis (LTEA) Assay for Keratin 19 (KRT19) using HepaRG (AID 2283512)
Experimental Context: mRNA level, 48 h; actives raise or lower the signal
Active and inactive are the calls of the source. The calls were made as follows: active = hit-call score of the fitted dose curve at least 0.9, where 1 is the maximum; inactive = score below 0.9.
Form entry, call: pick from active, inactive

Task item: Name the outcome recorded for `ClC(Cl)=C(c1ccc(Cl)cc1)c1ccc(Cl)cc1` in the assay.
Reply: inactive

###

Procedure Details: CEETOX_H295R_ESTRONE: CeeTox H295R High-throughput Steroidogenesis Assay for Estrone (AID 2283441);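 note: estrone secreted into medium measured by LC-MS/MS after dansyl derivatization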
Experimental Context: actives raise or lower the signal
Calls of active or inactive are those of the source. Rule for the calls: active = hit-call score of the fitted dose curve at least 0.9, where 1 is the maximum; inactive = score below 0.9.
Form entry, call: pick from active, inactive

Cc1cc(O)ccc1Cl | inactive
Oc1ccc(Cl)cc1Cl | active
CC#Cc1cc(C)nc(Nc2ccccc2)n1 | inactive
Cc1ccc(O)c(C)c1 | inactive
Clc1ccc(C(c2ccccc2Cl)C(Cl)(Cl)Cl)cc1 (centres undefined) | inactive
CCC(=O)O[C@H]1CC[C@H]2[C@@H]3CCC4=CC(=O)CC[C@]4(C)[C@H]3CC[C@]12C | active

Task item: Name the outcome recorded for `Nc1ccc(-c2ccc(N)cc2)cc1` in the assay.
Reply: inactive

Task item: Name the outcome recorded for `NS(=O)(=O)C(F)(F)C(F)(F)C(F)(F)C(F)(F)C(F)(F)C(F)(F)C(F)(F)C(F)(F)F` in the assay.
Reply: inactive

Task item: Name the outcome recorded for `Cc1cc2c3c(c1)C(c1ccccc1)=N[C@@H](NC(=O)c1ccncc1)C(=O)N3CC2` in the assay.
Reply: inactive

###

Procedure Details: CCTE_Shafer_MEA_acute_spike_number: CCTE's Neural Acute Assay for Total Number of Spikes, Shafer Lab (AID 2284008);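 for AC50: curve fitted for decrease in spike count so AC50 reflects inhibitors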
Active and inactive are the calls of the source. Rule for the calls: active = hit-call score of the fitted dose curve at least 0.9, where 1 is the maximum; inactive = score below 0.9.
Parameter: AC50

For orientation, consider the following solved cases.
CCSC(=O)N(CC)C1CCCCC1 | 20 µM (active)
CO/C=C(/C(=O)OC)c1ccccc1COc1cccc(C(F)(F)F)n1 | 0.278 µM (active)
O=C(O)C(F)(F)C(F)(F)C(F)(F)C(F)(F)C(F)(F)F | inactive
CCC(C)(CC)c1cc(NC(=O)c2c(OC)cccc2OC)on1 | inactive
ClC1=C(Cl)[C@]2(Cl)[C@@H]3[C@H]4C[C@H]([C@@H]5O[C@H]45)[C@@H]3[C@@]1(Cl)C2(Cl)Cl | 1.38 µM (active)
CCC(C)(c1ccc(O)cc1)c1ccc(O)cc1 | inactive

Could I get AC50 for every one of these entries?
1. ClC1=C(Cl)[C@]2(Cl)[C@@H]3[C@@H](Cl)[C@H]4O[C@H]4[C@@H]3C1(Cl)C2(Cl)Cl
2. CCC(C)c1cc([N+](=O)[O-])cc([N+](=O)[O-])c1O (centres undefined)
3. Nc1ccc(-c2ccc(N)cc2)cc1
4. ClC(Cl)=C(c1ccc(Cl)cc1)c1ccc(Cl)cc1

Reply:
1: 0.106 µM (active); 2: inactive; 3: inactive; 4: inactive
